The values you see were collected from the supplement of paper PMC8285479.

// reported normalised cell viability per item
- System: NCI-H1944
- measurementProtocol: normalised cell viability (NPI; 0 = phenylarsine oxide control, 1 = DMSO control) (fraction of DMSO control); higher = more viable cells (less compound toxicity)
- testSettings: glucocorticoid arm: hydrocortisone 2.75 uM pre-treated 2 days and continued; compound 1 µM; 6 days
Where a name gives a salt, the structure may show the parent alone. In all, about 1,900 compounds were measured (“normalised cell viability (NPI; 0 = phenylarsine oxide control, 1 = DMSO control)”: median about 1, lowest 2% from about 0.039 on). Shown is part of a subset that was picked to be rich in the lowest values.
Give the figure by itself; no unit, no explanation.

Some solved entries appear below for comparison.
[[record]]
compound = "O=[N+]([O-])c1ccc(-c2nc(-c3ccc(F)cc3)c(-c3ccncc3)[nH]2)cc1"
tgt = "NCI-H1944"
measuredquantity = "normalised cell viability"
measurement = 0.971

[[record]]
compound = "CN1CC[C@@H](c2c(O)cc(O)c3c(=O)cc(-c4ccccc4Cl)oc23)[C@@H]1CO"
tgt = "NCI-H1944"
measuredquantity = "normalised cell viability"
measurement = 0.601

[[record]]
compound = "CCCN(CCc1ccccc1)C1CCc2c(O)cccc2C1 (racemic) [(±)-PPHT hydrochloride]"
tgt = "NCI-H1944"
measuredquantity = "normalised cell viability"
measurement = 1.05

[[record]]
compound = "N[C@@H](Cc1c[nH]c2ccccc12)C(=O)O [L-Tryptophan]"
tgt = "NCI-H1944"
measuredquantity = "normalised cell viability"
measurement = 1.03


Prompt: # get_value(readout='normalised cell viability', item= N[C@@H](Cc1c[nH]cn1)C(=O)O [L-Histidine hydrochloride] )
Completion: 1

Prompt: # get_value(readout='normalised cell viability', item= CC(C)(C)c1ccc(C(O)CCCN2CCC(C(O)(c3ccccc3)c3ccccc3)CC2)cc1 (stereo unspecified) [Terfenadine] )
Completion: 1.03

* * *

- System: NCI-H1944
- measurementProtocol: normalised cell viability (NPI; 0 = phenylarsine oxide control, 1 = DMSO control) (fraction of DMSO control); higher = more viable cells (less compound toxicity)
- testSettings: glucocorticoid arm: vehicle; compound 1 µM; 6 days
Where a name gives a salt, the structure may show the parent alone. Whole data set: some 1,900 compounds, median “normalised cell viability (NPI; 0 = phenylarsine oxide control, 1 = DMSO control)” near 1, cut for the lowest 2% near 0.039. Many of the other results were omitted from the sample, so the lowest values are more common in it than they were.
// reported normalised cell viability per item
Give the figure by itself; no unit, no explanation.

Some solved entries appear below for comparison.
[[record]]
compound = "Cc1ccc(NC(=O)c2ccc(CN3CCN(C)CC3)cc2)cc1Nc1nccc(-c2cccnc2)n1 [Imatinib Mesylate]"
measurement = 1.01

[[record]]
compound = "COc1ccc(C(=O)NCc2cccnc2)cc1C(=O)NCc1cccnc1 [Picotamide]"
measurement = 1.01

[[record]]
compound = "Nc1ccccc1NC(=O)c1ccc(CNC(=O)OCc2cccnc2)cc1 [Entinostat (MS-275)]"
measurement = 0.866


Prompt: # get_value(readout='normalised cell viability', item= N.N.N.N.N.N.N.N.N.N.N.N.N.N.O.O.[Cl-].[Cl-].[Cl-].[Cl-].[Cl-].[Cl-].[Ru+4].[Ru+5].[Ru+5] )
Completion: 0.995

Prompt: # get_value(readout='normalised cell viability', item= O=C(O)[C@H]1NCCC[C@H]1C(=O)O (relative stereo) [cis-Piperidine-2,3-dicarboxylic acid] )
Completion: 0.987

* * *

- System: NCI-H1944
- measurementProtocol: normalised cell viability (NPI; 0 = phenylarsine oxide control, 1 = DMSO control) (fraction of DMSO control); higher = more viable cells (less compound toxicity)
- testSettings: glucocorticoid arm: hydrocortisone 2.75 uM pre-treated 2 days and continued; compound 1 µM; 6 days
In all, about 1,900 compounds were measured (“normalised cell viability (NPI; 0 = phenylarsine oxide control, 1 = DMSO control)”: median about 1, lowest 2% from about 0.039 on). The list comes from a sample in which the lowest values are over-represented; it also holds close analogues and randomly drawn compounds.
Mark satisfied for normalised cell viability under 1, not satisfied if at or over.

[[record]]
compound = "CC(=O)Nc1ccc(C(=O)Nc2ccccc2N)cc1"
tgt = "NCI-H1944"
category = "not satisfied"


Moving on to another compound below.
Prompt: Regarding Nc1ccccc1NC(=O)c1ccc(CNC(=O)OCc2cccnc2)cc1 [Entinostat] , kindly confirm whether its normalised cell viability is beneath 1.
Completion: satisfied

* * *

- Tested on: NCI-H1944
- measurementProtocol: normalised cell viability (NPI; 0 = phenylarsine oxide control, 1 = DMSO control) (fraction of DMSO control); higher = more viable cells (less compound toxicity)
- testSettings: glucocorticoid arm: hydrocortisone 2.75 uM co-treatment; compound 1 µM; 6 days
Where a name gives a salt, the structure may show the parent alone. The full ranking holds about 1,900 compounds; the median of “normalised cell viability (NPI; 0 = phenylarsine oxide control, 1 = DMSO control)” is about 1, and the lowest 2% start at about 0.039. For the sample, the lowest values were picked, then their nearest neighbours and some compounds at random.
// reported normalised cell viability per item
Give the figure by itself; no unit, no explanation.

Prompt: # get_value(readout='normalised cell viability', item= CSc1nc(N)c2ncn([C@@H]3O[C@H](COP(=O)(O)OP(=O)(O)O)[C@@H](O)[C@H]3O)c2n1 [2-Methylthioadenosine diphosphate trisodium] )
Completion: 1.01

Prompt: # get_value(readout='normalised cell viability', item= C[C@H](O)[C@H](O)[C@H]1CNc2nc(N)[nH]c(=O)c2N1 [(6R)-5,6,7,8-Tetrahydro-L-biopterin dihydrochloride] )
Completion: 1.02

Prompt: # get_value(readout='normalised cell viability', item= Cc1ccc(-n2nc(C(C)(C)C)cc2NC(=O)Nc2ccc(OCCN3CCOCC3)c3ccccc23)cc1 [BIRB 796 (Doramapimod)] )
Completion: 0.806

Prompt: # get_value(readout='normalised cell viability', item= CN1CCN(C2Cc3ccccc3Sc3ccc(Cl)cc32)CC1 (racemic) [(±)-Octoclothepin maleate] )
Completion: 1.01

* * *

- Test system: NCI-H1944
- measurementProtocol: normalised cell viability (NPI; 0 = phenylarsine oxide control, 1 = DMSO control) (fraction of DMSO control); higher = more viable cells (less compound toxicity)
- testSettings: glucocorticoid arm: hydrocortisone 2.75 uM pre-treated 2 days and continued; compound 5 µM; 6 days
Over roughly 1,900 compounds, “normalised cell viability (NPI; 0 = phenylarsine oxide control, 1 = DMSO control)” has its median near 1; the lowest 2% begin near 0.039. Many of the other results were omitted from the sample, so the lowest values are more common in it than they were.
measuredQuantity: normalised cell viability
Give the figure by itself; no unit, no explanation.

[[record]]
compound = "OC[C@H]1O[C@@H](n2cnc3c(Nc4ccccc4)ncnc32)[C@H](O)[C@@H]1O [N6-Phenyladenosine]"
measuredquantity = "normalised cell viability"
measurement = 1.01

[[record]]
compound = "CC(NC(=O)C(O)c1cc(F)cc(F)c1)C(=O)NC1C(=O)N(C)c2ccccc2-c2ccccc21 (stereo not drawn)"
measuredquantity = "normalised cell viability"
measurement = 1.01


Prompt: Could you share what normalised cell viability was measured for Oc1ccc2ccccc2c1SSc1c(O)ccc2ccccc12 , tested on NCI-H1944?
Completion: 1.01

* * *

- Tested on: NCI-H1944
- measurementProtocol: normalised cell viability (NPI; 0 = phenylarsine oxide control, 1 = DMSO control) (fraction of DMSO control); higher = more viable cells (less compound toxicity)
- testSettings: glucocorticoid arm: vehicle; compound 5 µM; 6 days
Structures can show the parent of a compound that is named as a salt. Whole data set: some 1,900 compounds, median “normalised cell viability (NPI; 0 = phenylarsine oxide control, 1 = DMSO control)” near 1, cut for the lowest 2% near 0.039. This is one part of a sample in which the lowest values are shown more often than they occur.
// reported normalised cell viability per item
Give the figure by itself; no unit, no explanation.

Some solved entries appear below for comparison.
[[record]]
molecule = "O=C(O)[C@H]1NCCC[C@H]1C(=O)O (relative stereo) [cis-Piperidine-2,3-dicarboxylic acid]"
tgt = "NCI-H1944"
measurement = 0.989

[[record]]
molecule = "N#C/C(=C\\c1ccc(-c2cc(Cl)ccc2Cl)o1)C(=O)Nc1cccc2ncccc12"
tgt = "NCI-H1944"
measurement = 0.989


Okay, next one:
Prompt: # get_value(readout='normalised cell viability', item= NCCC[C@](N)(C(=O)O)C(F)F (racemic) [DL-alpha-Difluoromethylornithine hydrochloride] )
Completion: 0.982

* * *

- Tested on: NCI-H1944;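 further: CTB read-out in 384-well plates, triplicate wells, NPI normalised per plate against 1 µM phenylarsine oxide (0) and 0.1% DMSO (1) controls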
- measurementProtocol: normalised cell viability (NPI; 0 = phenylarsine oxide control, 1 = DMSO control) (fraction of DMSO control); NCI-H1944 is a non-small cell lung cancer line; higher = more viable cells (less compound toxicity)
- testSettings: glucocorticoid arm: hydrocortisone 2.75 uM pre-treated 2 days and continued; compound 1 µM; 6 days
Whole data set: some 1,900 compounds, median “normalised cell viability (NPI; 0 = phenylarsine oxide control, 1 = DMSO control)” near 1, cut for the lowest 2% near 0.039. Shown is part of a subset that was picked to be rich in the lowest values.
// reported normalised cell viability per item
Give the figure by itself; no unit, no explanation.

Some solved entries appear below for comparison.
[[record]]
compound = "O=C(/C=C/c1ccc2ccccc2n1)c1ccncc1"
measurement = 1.02

[[record]]
compound = "O=C(Nc1cccc(Nc2ncc(Br)c(NCCc3cnc[nH]3)n2)c1)N1CCCC1"
measurement = 0.939

[[record]]
compound = "N=C(NC(=O)c1nc(Cl)c(N)nc1N)Nc1ccccc1 [Phenamil methanesulfonate]"
measurement = 0.894


Okay, next one:
Prompt: # get_value(readout='normalised cell viability', item= Cc1[nH]nc2ccc(-c3cncc(OC[C@@H](N)Cc4ccccc4)c3)cc12 )
Completion: 0.792
